Tested on: A549-ACTB-RAB5A
protocol summary: phenotypically active (imaging signature differs from DMSO and reproducible) at any of 0.3-9 uM (binary (1 = active, 0 = inactive)); higher = active
stated conditions: treatment time: 24 h
Classes to choose from: active, inactive

Known results for molecules:
{"smiles str": "Fc1ccc([C@@H]2CCNC[C@H]2COc2ccc3c(c2)OCO3)cc1", "group label": "active"}
{"smiles str": "COc1cc2ncnc(Nc3ccc(O)c(Br)c3)c2cc1OC", "group label": "active"}
{"smiles str": "C#C[C@]1(O)CC[C@H]2[C@@H]3CCc4cc(OC5CCCC5)ccc4[C@H]3CC[C@@]21C", "group label": "inactive"}
{"smiles str": "CCCCCCCCCCNCCSSCc1ccc(Cl)cc1", "group label": "active"}

Exercise: // return assay outcome for C/C=C(/C(=C/C)c1ccc(O)cc1)c1ccc(O)cc1
Key: inactive

Exercise: // return assay outcome for Nc1nnc(-c2cccc(Cl)c2Cl)c(N)n1
Key: inactive

---

Test system: WPMY1-TP53BP1-CLTA
protocol summary: phenotypically active (imaging signature differs from DMSO and reproducible) at any of 0.3-9 uM (binary (1 = active, 0 = inactive)); higher = active
stated conditions: treatment time: 24 h
Classes to choose from: 1 (yes) for active, 0 (no) for inactive

{"molecule": "CN1CCC(=C2c3ccccc3CC(=O)c3sccc32)CC1", "group label": "1 (yes)"}
{"molecule": "COC(=O)C1=C(C)NC(C)=C(C(=O)OC)C1c1ccccc1[N+](=O)[O-]", "group label": "0 (no)"}

Exercise: // return assay outcome for O=P(O)(O)C(O)(Cc1cccnc1)P(=O)(O)O [risedronate]
Key: 0 (no)

Exercise: // return assay outcome for CCCNC(=O)NS(=O)(=O)c1ccc(Cl)cc1 [chlorpropamide]
Key: 0 (no)

Exercise: // return assay outcome for C[C@@H]1CCN(C(=O)CC#N)C[C@@H]1N(C)c1ncnc2[nH]ccc12
Key: 0 (no)

Exercise: // return assay outcome for O=C1NC(=O)C(c2ccccc2)(c2ccccc2)N1
Key: 0 (no)

Exercise: // return assay outcome for OCCOCCN1CCN(C2=Nc3ccccc3Sc3ccccc32)CC1 [Quetiapine hemifumarate]
Key: 0 (no)

---

Test system: HepG2-TP53BP1-CLTA
protocol summary: phenotypically active (imaging signature differs from DMSO and reproducible) at any of 0.3-9 uM (binary (1 = active, 0 = inactive)); higher = active
stated conditions: treatment time: 24 h
Where a name gives a salt, the structure may show the parent alone.
Classes to choose from: true for active, false for inactive

Known results for molecules:
{"molecule": "O=S(=O)(c1cccc2cnccc12)N1CCCNCC1", "group label": "true"}
{"molecule": "C=CC(=O)Nc1cccc(CN2C(=O)N(c3c(Cl)c(OC)cc(OC)c3Cl)Cc3cnc(NCCCCN(CC)CC)nc32)c1 [FIIN 1 hydrochloride]", "group label": "true"}
{"molecule": "Cn1cnc2c(NCc3ccccc3)nc(NCCO)nc21", "group label": "false"}
{"molecule": "CC(=O)O[C@@]12CO[C@@H]1C[C@H](O)[C@@]1(C)C(=O)[C@H](O)C3=C(C)[C@@H](OC(=O)[C@H](O)[C@@H](NC(=O)OC(C)(C)C)c4ccccc4)C[C@](O)([C@@H](OC(=O)c4ccccc4)[C@H]21)C3(C)C", "group label": "true"}
{"molecule": "CCCC1(CCC)CCC2(CCN(CCCN(CC)CC)C2)CC1 [Atiprimod dihydrochloride]", "group label": "true"}

Next molecule, please.
Exercise: // return assay outcome for Cc1noc(C)c1Cn1cc(C#N)c2cc(Oc3ccc(NC(=O)[C@@H]4CCCN4)cc3)ccc21
Key: true
